Origin of values: patent US20200087416A1

EXPERIMENTAL SYSTEM: human PCSK9 (PCSK9 antigen, SEQ ID NO. 53) (human, UniProt A8T644 31-152; Q8NBP7 153-692, Biotin-labelled on amines in the MSD-SET and sorting experiments; positions not given.); also: unit not given here
MEASUREMENT PROTOCOL: cell-based or functional assay
Recorded BODIPY-LDL uptake by HepG2 cells, fluorescence, 66.7 nM, replicate 2 by entry
No unit in the answer, only the number.

Recorded BODIPY-LDL uptake by HepG2 cells, fluorescence, 66.7 nM, replicate 2, per entry:
Lodelcizumab (antibody, V domains shown) VH: QVQLVQSGAEVKKPGASVKVSCKASGYTFSTMYMSWVRQAPGQGLEWMGRIDPANEHTNYAQKFQGRVTMTRDTSISTAYMELSRLTSDDTAVYYCARSYYYYNMDYWGQGTLVTVSS VL: QIVLTQSPATLSVSPGERATLSCRASQSVSYMHWYQQKPGQAPRLLIYGVFRRATGIPDRFSGSGSGTDFTLTIGRLEPEDFAVYYCLQWSSDPPTFGQGTKLEIK	0.312
ADI-02396 (antibody, human IgG2, kappa, V domains shown, IgG; also called parent antibody) VH: QLQLQESGPGLVKPSETLSLTCTVSGGSISSSSYYWGWIRQPPGKGLEWIGSIYYSGSTYYNPSLKSRVTISVDTSKNQFSLKLSSVTAADTAVYYCAREGSGVVPAAGPNWFDPWGQGTLVTVSS VL: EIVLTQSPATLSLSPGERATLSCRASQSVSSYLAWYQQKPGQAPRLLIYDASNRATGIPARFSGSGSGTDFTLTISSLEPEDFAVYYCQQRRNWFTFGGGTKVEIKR	0.401
Evolocumab (antibody, V domains shown) VH: QVQLVQSGAEVKKPGASVKVSCKASGYTLTSYGISWVRQAPGQGLEWMGWVSFYNGNTNYAQKLQGRGTMTTDPSTSTAYMELRSLRSDDTAVYYCARGYGMDVWGQGTTVTVSS VL: QSALTQPASVSGSPGQSITISCTGTSSDVGGYNSVSWYQQHPGKAPKLMIYEVSNRPSGVSNRFSGSKSGNTASLTISGLQAEDEADYYCNSYTSTSMVFGGGTKLTVL	0.778
ADI-10085 (antibody, human IgG2, kappa, V domains shown, IgG) VH: QLQLQESGPGLVKPSETLSLTCTVSGGSIVSSSYYWAWIRQPPGKGLEWIGSINYKGSTYYNPSLKSRVTISVDTSKNQFSLKLSSVTAADTAVYYCARENSGVVPAAGPNWFGPWGQGTLVTVSS VL: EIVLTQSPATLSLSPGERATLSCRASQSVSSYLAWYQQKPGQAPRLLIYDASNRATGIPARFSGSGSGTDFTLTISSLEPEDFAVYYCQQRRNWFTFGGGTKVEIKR	0.797
ADI-10089 (antibody, human IgG2, kappa, V domains shown, IgG) VH: QLQLQESGPGLVKPSETLSLTCTVSGGSIGSSSYYWTWIRQPPGKGLEWIGSINYRGSTYYNPSLKSRVTISVDTSKNQFSLKLSSVTAADTAVYYCARENSGVVPAAGPNWFDPWGQGTLVTVSS VL: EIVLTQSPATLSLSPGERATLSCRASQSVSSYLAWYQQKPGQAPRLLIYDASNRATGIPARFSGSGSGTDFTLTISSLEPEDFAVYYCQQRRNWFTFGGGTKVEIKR	0.741

query: Provide BODIPY-LDL uptake by HepG2 cells, fluorescence, 66.7 nM, replicate 2 value for the following binder: ADI-10087 (antibody, human IgG2, kappa, V domains shown, also called anti-PCSK antibody of the invention) VH: QLQLQESGPGLVKPSETLSLTCTVSGGSISSASYYWSWIRQPPGKGLEWIGSINYRGSTYYNPSLKSRVTISVDTSKNQFSLKLSSVTAADTAVYYCARENSGVVPAAGPNWFGPWGQGTLVTVSS VL: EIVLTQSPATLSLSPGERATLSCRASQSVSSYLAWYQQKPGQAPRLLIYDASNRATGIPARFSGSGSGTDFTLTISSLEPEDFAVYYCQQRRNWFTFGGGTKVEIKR
result: 0.775

query: Provide BODIPY-LDL uptake by HepG2 cells, fluorescence, 66.7 nM, replicate 2 value for the following binder: ADI-10088 (antibody, human IgG2, kappa, V domains shown, IgG) VH: QLQLQESGPGLVKPSETLSLTCTVSGGSIGSSSYYWAWIRQPPGKGLEWIGSINYRGSTYYNPSLKSRVTISVDTSKNQFSLKLSSVTAADTAVYYCARENSGVVPAAGPNWFDPWGQGTLVTVSS VL: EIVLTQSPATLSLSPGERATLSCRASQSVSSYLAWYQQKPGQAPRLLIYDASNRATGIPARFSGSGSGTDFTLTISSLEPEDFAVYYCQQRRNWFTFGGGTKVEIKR
result: 0.752
